Reference for the values: patent US20170253607A1

Below, each entry is listed with its recorded pIC50.
- study target: HIV-1 PR (Human immunodeficiency virus type 1 group M subtype B)
- assay remarks: HIV-protease inhibitory activity assay (FRET peptide substrate)
- applied conditions: Test Example 1
pIC50: −log10 of the molar value.
readout label: pIC50

COc1ccc(S(=O)(=O)N(CC(C)C)CC(O)C(Cc2ccc(OCc3ccccc3-c3nc4n(c3C(=O)O)CCCC4)cc2)NC(=O)OC2COC3(C)OCCC23)cc1 (centres unmarked)
8.80
COc1ccc(S(=O)(=O)N(CC(C)C)CC(O)C(Cc2ccc(OCc3ccccc3NC(=O)c3cc(Cl)cc(Cl)c3O)cc2)NC(=O)OC2COC3(C)OCCC23)cc1 (centres unmarked)
8.93
COc1ccc(S(=O)(=O)N(CC(C)C)C[C@@H](O)[C@H](Cc2ccc(OCc3ccccc3-c3sc4c(c3C(=O)O)CC(C)(C)CC4)cc2)NC(=O)O[C@H]2CCO[C@H]3OCC[C@H]32)cc1
8.92
COc1ccc(S(=O)(=O)N(CC(C)C)CC(O)C(Cc2ccc(NCc3ccccc3-c3cc4c(cc3C(=O)O)OCCO4)cc2)NC(=O)OC2COC3(C)OCCC23)cc1 (centres unmarked)
8.74
COc1ccc(S(=O)(=O)N(CC(C)C)CC(O)C(Cc2ccc(OCc3nccnc3-c3sc4c(c3C(=O)O)CC(C)(C)CC4)cc2)NC(=O)OC2COC3(C)OCCC23)cc1 (centres unmarked)
8.66
COc1ccc(S(=O)(=O)N(CC(C)C)CC(O)C(Cc2ccc(NCc3ccccc3-c3c(C(=O)O)[nH]c4cc(Cl)cc(Cl)c34)cc2)NC(=O)OC2COC3(C)OCCC23)cc1 (centres unmarked)
8.61
COc1ccc(S(=O)(=O)N(CC(C)C)CC(O)C(Cc2ccc(OCc3ccccc3-c3sc(Cl)c(-c4ccccc4)c3C(=O)O)cc2)NC(=O)OC2COC3OCCC23)cc1 (centres unmarked)
9.11
COc1ccc(S(=O)(=O)N(CC(C)C)CC(O)C(Cc2ccc(OCc3ccc(-c4sc5c(c4C(=O)O)CC(C)(C)CC5)c(C)c3)cc2)NC(=O)OC2COC3(C)OCCC23)cc1 (centres unmarked)
8.87
COc1ccc(S(=O)(=O)N(CC(C)C)CC(O)C(Cc2ccc(OC3CCCN(c4ccccc4-c4sc5c(c4C(=O)O)CC(C)(C)CC5)C3)cc2)NC(=O)OC2COC3(C)OCCC23)cc1 (centres unmarked) [Compound I-100]
8.70
COc1ccc(S(=O)(=O)N(CC(C)C)CC(O)C(Cc2ccc(NCc3ccccc3-c3ccc(OC(F)(F)F)cc3C(=O)O)cc2)NC(=O)OC2COC3(C)OCCC23)cc1 (centres unmarked)
8.76
COc1ccc(S(=O)(=O)N(CC(C)C)CC(O)C(Cc2ccc(CN3CCc4c(-c5sc6c(c5C(=O)O)CC(C)(C)CC6)cccc43)cc2)NC(=O)OC2COC3(C)OCCC23)cc1 (centres unmarked)
8.23
CC(C)CN(CC(O)C(Cc1ccc(CCc2sc3c(c2C(=O)O)CC(C)(C)CC3)cc1)NC(=O)OC1COC2(C)OCCC12)S(=O)(=O)c1ccc2c(c1)OCO2 (centres unmarked)
8.59
COc1ccc(S(=O)(=O)N(CC(C)C)CC(O)C(Cc2ccc(NCc3ccc4ccccc4c3-c3sc4c(c3C(=O)O)CC(C)(C)CC4)cc2)NC(=O)OC2COC3OCCC23)cc1 (centres unmarked)
8.59
CC(C)CN(CC(O)C(Cc1ccc(OCc2sc(Oc3ccccc3)nc2C(=O)O)cc1)NC(=O)OC1COC2OCCC12)S(=O)(=O)c1ccc2ncsc2c1 (centres unmarked)
9.19
COc1ccc(S(=O)(=O)N(CC(C)C)CC(O)C(Cc2ccc(OC3CCN(c4ccc(C#N)cc4-c4sc5c(c4C(=O)O)CC(C)(C)CC5)CC3)cc2)NC(=O)OC2COC3(C)OCCC23)cc1 (centres unmarked)
7.99
COc1ccc(S(=O)(=O)N(CC(C)C)C[C@@H](O)[C@H](Cc2ccc(OCc3ccccc3-c3sc4c(c3C(=O)O)CC(C)(C)CC4)cc2)NC(=O)[C@H](CC(N)=O)NC(=O)c2ccc3ccccc3n2)cc1
8.44
COc1ccc(S(=O)(=O)N(CC(C)C)CC(O)C(Cc2ccc(OCc3ccccc3-c3ccc4c(c3)C(=O)C(c3ccc(C(F)(F)F)cc3)C4=O)cc2)NC(=O)OC2COC3(C)OCCC23)cc1 (centres unmarked)
8.75
COc1ccc(S(=O)(=O)N(CC(C)C)CC(O)C(Cc2ccc(N(C)CC3COCCC3c3sc4c(c3C(=O)O)CC(C)(C)CC4)cc2)NC(=O)OC2COC3(C)OCCC23)cc1 (centres unmarked) [Compound I-400]
8.77
CC1(C)CCc2sc(-c3ccc(C(F)(F)F)cc3CNc3ccc(CC(NC(=O)OC4COC5OCCC45)C(O)CN(CC4CCC4)S(=O)(=O)c4ccc5ncsc5c4)cc3)c(C(=O)O)c2C1 (centres unmarked)
8.30
COc1ccc(S(=O)(=O)N(CC2CCCC2)CC(O)C(Cc2ccc(OCc3cc(C(F)(F)F)ccc3-c3nc4n(c3C(=O)O)CCCC4)cc2)NC(=O)OC2COC3(C)OCCC23)cc1 (centres unmarked)
8.69
